Tested on: OVCAR-5 complex spheroids, viability
Experiment: Anticancer human tumor OVCAR-5 cell line growth inhibition; active means viability on the fitted dose curve at most 10% of control; inactive means the rest;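 further: spheroids exposed to agents for seven days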
Settings: second compound 1 µM; first compound 0.3 µM
Classes used: yes (active), no (inactive)

>>> label_class("COc1cc(C2c3cc4c(cc3C(OC3OC5COC(C)OC5C(O)C3O)C3COC(=O)C23)OCO4)cc(OC)c1O (centres undefined) + NC1CC1c1ccc(-c2cccc(O)c2)cc1")
"no"
>>> label_class("Nc1ccccc1NC(=O)c1ccc(CNC(=O)OCc2cccnc2)cc1 + NC1CCC(NC2CC2c2ccccc2)CC1")
"no"
>>> label_class("NS(=O)(=O)OCC1CC(n2ccc3c(NC4CCc5ccccc54)ncnc32)CC1O (centres undefined) + NC1CC1c1ccc(-c2cccc(O)c2)cc1")
"no"
>>> label_class("CCc1c2c(nc3ccc(O)cc13)-c1cc3c(c(=O)n1C2)COC(=O)[C@]3(O)CC + NC1CCC(NC2CC2c2ccccc2)CC1")
"yes"
